Measurement target: T1, human G-CSF receptor (human, UniProt Q99062 25-836)
T1 sequence (looked up): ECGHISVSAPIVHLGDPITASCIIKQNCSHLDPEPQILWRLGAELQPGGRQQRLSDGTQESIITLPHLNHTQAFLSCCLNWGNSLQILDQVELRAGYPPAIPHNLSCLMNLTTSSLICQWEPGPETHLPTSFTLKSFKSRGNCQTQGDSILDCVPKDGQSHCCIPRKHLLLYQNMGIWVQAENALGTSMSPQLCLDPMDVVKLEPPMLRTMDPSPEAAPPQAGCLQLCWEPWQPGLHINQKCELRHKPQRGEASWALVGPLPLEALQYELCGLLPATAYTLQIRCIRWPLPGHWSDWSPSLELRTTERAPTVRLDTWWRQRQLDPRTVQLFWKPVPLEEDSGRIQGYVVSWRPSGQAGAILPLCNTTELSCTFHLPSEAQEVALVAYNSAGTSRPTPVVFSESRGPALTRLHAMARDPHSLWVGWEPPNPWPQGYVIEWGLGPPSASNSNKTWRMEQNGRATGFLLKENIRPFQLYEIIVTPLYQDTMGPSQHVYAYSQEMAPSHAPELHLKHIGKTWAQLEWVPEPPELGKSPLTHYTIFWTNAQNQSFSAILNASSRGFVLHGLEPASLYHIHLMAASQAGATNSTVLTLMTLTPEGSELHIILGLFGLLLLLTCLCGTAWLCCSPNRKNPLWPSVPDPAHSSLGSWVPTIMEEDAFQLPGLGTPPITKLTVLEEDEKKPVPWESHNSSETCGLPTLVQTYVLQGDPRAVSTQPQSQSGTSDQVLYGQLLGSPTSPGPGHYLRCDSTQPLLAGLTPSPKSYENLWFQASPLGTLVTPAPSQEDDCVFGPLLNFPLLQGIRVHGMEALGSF
Protocol description: cell-based or functional assay
Metric name: EC50 (% of hG-CSF) conjugated to SPA-PEG 5000

Binder	Result
G-CSF variant K16/34/40R S66K conjugated to SPA-PEG 5000 (ligand, SPA-PEG 5000 conjugated to the available PEGylation sites) TPLGPASSLPQSFLLRCLEQVRKIQGDGAALQERLCATYRLCHPEELVLLGHSLGIPWAPLSSCPKQALQLAGCLSQLHSGLFLYQGLLQALEGISPELGPTLDTLQLDVADFATTIWQQMEELGMAPALQPTQGAMPAFASAFQRRAGGVLVASHLQSFLEVSYRVLRHLAQP	2 % of hG-CSF
G-CSF variant K16/23/34R conjugated to SPA-PEG 5000 (ligand, SPA-PEG 5000 conjugated to the available PEGylation sites) TPLGPASSLPQSFLLRCLEQVRRIQGDGAALQERLCATYKLCHPEELVLLGHSLGIPWAPLSSCPSQALQLAGCLSQLHSGLFLYQGLLQALEGISPELGPTLDTLQLDVADFATTIWQQMEELGMAPALQPTQGAMPAFASAFQRRAGGVLVASHLQSFLEVSYRVLRHLAQP	10 % of hG-CSF
G-CSF variant K16/34/40R E46K conjugated to SPA-PEG 5000 (ligand, SPA-PEG 5000 conjugated to the available PEGylation sites) TPLGPASSLPQSFLLRCLEQVRKIQGDGAALQERLCATYRLCHPEKLVLLGHSLGIPWAPLSSCPSQALQLAGCLSQLHSGLFLYQGLLQALEGISPELGPTLDTLQLDVADFATTIWQQMEELGMAPALQPTQGAMPAFASAFQRRAGGVLVASHLQSFLEVSYRVLRHLAQP	1 % of hG-CSF
G-CSF variant K16/34/40R Q90K Q120K T133K conjugated to SPA-PEG 5000 (ligand, SPA-PEG 5000 conjugated to the available PEGylation sites) TPLGPASSLPQSFLLRCLEQVRKIQGDGAALQERLCATYRLCHPEELVLLGHSLGIPWAPLSSCPSQALQLAGCLSQLHSGLFLYQGLLKALEGISPELGPTLDTLQLDVADFATTIWQKMEELGMAPALQPKQGAMPAFASAFQRRAGGVLVASHLQSFLEVSYRVLRHLAQP	2 % of hG-CSF
G-CSF variant K16/34/40R R147K conjugated to SPA-PEG 5000 (ligand, SPA-PEG 5000 conjugated to the available PEGylation sites) TPLGPASSLPQSFLLRCLEQVRKIQGDGAALQERLCATYRLCHPEELVLLGHSLGIPWAPLSSCPSQALQLAGCLSQLHSGLFLYQGLLQALEGISPELGPTLDTLQLDVADFATTIWQQMEELGMAPALQPTQGAMPAFASAFQRKAGGVLVASHLQSFLEVSYRVLRHLAQP	1 % of hG-CSF
G-CSF variant K16/34/40R Q70K Q90K conjugated to SPA-PEG 5000 (ligand, SPA-PEG 5000 conjugated to the available PEGylation sites) TPLGPASSLPQSFLLRCLEQVRKIQGDGAALQERLCATYRLCHPEELVLLGHSLGIPWAPLSSCPSQALKLAGCLSQLHSGLFLYQGLLKALEGISPELGPTLDTLQLDVADFATTIWQQMEELGMAPALQPTQGAMPAFASAFQRRAGGVLVASHLQSFLEVSYRVLRHLAQP	20 % of hG-CSF
G-CSF variant K16/34/40R Q90K T105K conjugated to SPA-PEG 5000 (ligand, SPA-PEG 5000 conjugated to the available PEGylation sites) TPLGPASSLPQSFLLRCLEQVRKIQGDGAALQERLCATYRLCHPEELVLLGHSLGIPWAPLSSCPSQALQLAGCLSQLHSGLFLYQGLLKALEGISPELGPTLDKLQLDVADFATTIWQQMEELGMAPALQPTQGAMPAFASAFQRRAGGVLVASHLQSFLEVSYRVLRHLAQP	10 % of hG-CSF
